B1: TPR t1 (parent)
chain: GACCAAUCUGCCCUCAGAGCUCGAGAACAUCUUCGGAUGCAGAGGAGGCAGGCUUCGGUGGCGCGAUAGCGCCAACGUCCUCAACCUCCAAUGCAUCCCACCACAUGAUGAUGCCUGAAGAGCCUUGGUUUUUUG

- Variants of: B1
- experimental.details: polymerase ribozyme fitness, log enrichment relative to wild type (log ratio); higher = more active; in vitro selection for triplet polymerase activity
Parameter polymerase ribozyme fitness (log ratio): see the listing below.
I only need the number, thanks.

Here are 10 variants together with their reported answers.
Prompt: Which polymerase ribozyme fitness (log ratio) reading was recorded for the variant GACCAAUCUGCCCUCAGAGCUCGAGAACAUCUUCGGAUGCAGAGGAGCCAGGCUUCGGUGGCGCGAUAGCGCCAACGUCCUCAACCUCCAAUGCAUCCCUCCACAUGAUGAUGCCUGAAGAGCCUUGGUUUUUUG ?
Response: -1.76

Prompt: Which polymerase ribozyme fitness (log ratio) reading was recorded for the variant GACCAAUCUGCCCUCAGAGCUCGAGAACAUCUUCGGAUGCAGCGGAGGCAGGCUUCGGUGGCGCGAUAGCGCCAACGUCCUCAACCUCCAAUGCAUCCCACCACAUGAUGAUGCCUGAAGAGCCAUGGUUUUUUG ?
Response: -2

Prompt: Which polymerase ribozyme fitness (log ratio) reading was recorded for the variant GACCAAUCUGCCCUCAGAGCUCGAGAACAUCUUCGGAUGCAGAGGAGGCAGGCUUCGGUGGCGCGAUAGCGCCAACGUCCUCAACCUCCAAUGCAUCCCACCACAUGAUGAAGCCUGAGGAGCCUUGGUUUUUUG ?
Response: 1.9

Prompt: Which polymerase ribozyme fitness (log ratio) reading was recorded for the variant GACCAAUCUGCCCUCAGAGCACGAGAACAUCUUCGGAUGCAGAGGAGGCAGGCUUCGGUGGCGCGAUAGCGCCAACGUCCUCAACCUCCAAUGCAUCCCACCACAUGAUGAUGCCUGAAGAGCCUUGGUUUUUUG ?
Response: -0.29

Prompt: Which polymerase ribozyme fitness (log ratio) reading was recorded for the variant GACCAAUCUGCACUCAGAGCUCGAGAACAUCUUCGGAUGCAGAGGAGGCAGGCUUCGGUGGCGCGAUAGCGCCAUCGUCCUCAACCUCCAAUGCAUCCCACCACAUGAUGCUGCCUGAAGAGCCUUGGUUUUUUG ?
Response: 0.286

Prompt: Which polymerase ribozyme fitness (log ratio) reading was recorded for the variant GACCAAUCUUCCCUCAGAGCUCGAGAACAUCUUCGGAUGCAGACGAGGCAGGCUUCGGUGGCGCGAUAGCGCCAACGUCCUCAACCUUCAAUGCAUCCCACCACGUGAUGAUGCCUGAACAGCCUUGGUUUUUUG ?
Response: -3.52

Prompt: Which polymerase ribozyme fitness (log ratio) reading was recorded for the variant GACCAAUCUGCCCUCAGAGCUCGAGAACAUCUUCGGAUGCAGAGGAGGCAGGCUUCGAUGGCGCGAUAGCGCCAACGUCCUCAACCUCCAAUGCAUCCCACCACAUGAUGAUGCCUGAAGAGCAUUGGUUUUUUG ?
Response: 2.39

Prompt: Which polymerase ribozyme fitness (log ratio) reading was recorded for the variant GACCAAUCUGCCCUCAGAGCUCGAGAACAUCUUCGGCUGCAGAGGAGGCAGGCUUCGGUGGCGCGAUAGCGCCAACGUACUCAACCUCCAAUGUAUCCCACCACAUGAUGAUGCCUGAAGAGCCUUGGUUUUUUG ?
Response: -2.07

Prompt: Which polymerase ribozyme fitness (log ratio) reading was recorded for the variant GACCAAUCUGCCCUCAGAGCUCGAGAACAUCUUCGGAUGCAGAGGAGGCAGGCUUCGGUGGCGCGAUAGCGCCAACGUCCGCAACCUCCAAUGCAUCCCACCAUAUGAUGAUGCCUGAAGAACCUUGGUUUUUUG ?
Response: -4.33

Prompt: Which polymerase ribozyme fitness (log ratio) reading was recorded for the variant GACCAAUCUGCCCUCAGAGCGCGAGAACAUCUUCGGAUGCAGAGGAGGCAGGCUUCGGUGGCGCGAUAGCGCCAACGUCCUCAACCUGCAAUGCAACCCACUACAUGAUGAUGCCUGAAGAGCCUUGGUUUUUUG ?
Response: -5.77

Others:
Prompt: Which polymerase ribozyme fitness (log ratio) reading was recorded for the variant GACCAAUCUGCCCUCAGAGCUCGAGAACAUCUUCGAAUGCAGAGGAGGCAGGCUUCGGUGGCGCGAUAGCGCCAACGUCCUCAACCUCCAAUGCAGCCCACCACAUGAUGAUGCCUGAAGAGCCUUGGUUUUUUG ?
Response: -1.67

Prompt: Which polymerase ribozyme fitness (log ratio) reading was recorded for the variant GACCAAUCUGCCCUCAGAGCUCGAGAAUAUCUUCGGAUGCAGAGGAGGCAGGUUUCGGUGGCGCGAUAGCGCCAACGUCCUCAACCUCCAACGCAUCCCACCACAAGAUGAUGCCUGAAGAGCCUUGGUUUUAUG ?
Response: -3.09

Prompt: Which polymerase ribozyme fitness (log ratio) reading was recorded for the variant GACCAAUCUGCCCUCAGAGCUCGAGAACAUCUUCGGAUGCAGAGGAGGCAGGCUUCGGUGGCGCGAUAGCGCUAACGUCCUCAACCUCCAAUGCAUCCCACCACAUGAUGAUGCAUGAAGAGCCUUGGUUUUUUG ?
Response: -0.495

Prompt: Which polymerase ribozyme fitness (log ratio) reading was recorded for the variant GACCAAUCUGCCCUCAGAGCUCGAGAACAUCUUCGGAUGCAGAGGAGGCAGGCUUCGGUGCCGCGAUAGCGCCAACGUCCUCAACCUCCAAUGCAUCCCACCCCAUGAGGAUGCCUGAAGAGCCUUGGUUUUUUG ?
Response: -5.79

Prompt: Which polymerase ribozyme fitness (log ratio) reading was recorded for the variant GACCAAUCUGCCCGCAGAGCUCGAGAACAUCUUCGGAUGCAGAGGAGGCAGGUUUCGGUGGCGCGAUAGCGCCAACGUCCUCAACCACCAAUGCAUCCCACCACAUGAUGAUGCCUGAAGAGCCUUGGUUUUUUG ?
Response: -2.67

All values here come from the RNAGym collection of RNA variant scans (doi:10.1073/pnas.2313332121).
